- target_or_test_system: DLG2_1, Q15700
- assay_protocol: holdup assay
- Parameters: key: below the threshold = too weak to quantify, mostly under pKd 3.1 to 4
- condition_label: plain residues with an end cap or a label only (N-terminal biotin on a linker: ttds)
readout_kind: pKd

binder="STLTIFETAL [ABCC4, O15439]" quantitative_result=4.21
binder="SRPQRTQTQV [HPV67-E6, A4U7F2]" quantitative_result=4.25
binder="SVWLRKETRV [CYSLTR2, Q9NS75]" quantitative_result=5.26
binder="SSRTRRETQL [HPV16-E6, P03126]" quantitative_result=4.92

Data origin, for the record: paper PMC9482650
